target_system: HLA-A*02:01 (Homo sapiens, UniProt P04439, D140Y/D185E/D98H/E176V/E277Q/G131W/G231S/I119V/I121R/I166T/I218V/L300P/L318F/N151K/N90K/P208A/P217A/Q86G/Q94H/R138H/R169H/T345S)
experiment_summary: MHC binding assay: UV-ligand exchange with β2m ELISA (peptide exchange yield)
cond: MHC class I binding score; binding to HLA-A*02:01 ranged by peptide exchange yield (UV-ligand exchange, β2m ELISA)

- substance: "383 (YLLREWVNL; listed as Homo sapiens) [compound 383]"
  Peptide Exchange: "″++++″ (≥75% = ++++)"
- substance: "49 (FLTDLFAQL; listed as Homo sapiens) [compound 49]"
  Peptide Exchange: "″++++″ (≥75% = ++++)"
- substance: "101 (ILVVIEPLL; listed as Homo sapiens) [compound 101]"
  Peptide Exchange: "″++++″ (≥75% = ++++)"
- substance: "10 (FVYGESVEL; listed as Homo sapiens) [compound 10]"
  Peptide Exchange: "″+++″ (≥50 = +++)"
- substance: "182 (VLLSVPGPPV; listed as Homo sapiens) [compound 182]"
  Peptide Exchange: "″+++″ (≥50 = +++)"
- substance: "239 (ILAGEMLSV; listed as Homo sapiens) [compound 239]"
  Peptide Exchange: "″+++″ (≥50 = +++)"
- substance: "345 (YLIEPDVELQRI; listed as Homo sapiens) [compound 345]"
  Peptide Exchange: "″+++″ (≥50 = +++)"
- substance: "140 (QIAELPATSV; listed as Homo sapiens) [compound 140]"
  Peptide Exchange: "″+++″ (≥50 = +++)"

====

target_system: HLA-A*02:01 (Homo sapiens, UniProt P04439, D140Y/D185E/D98H/E176V/E277Q/G131W/G231S/I119V/I121R/I166T/I218V/L300P/L318F/N151K/N90K/P208A/P217A/Q86G/Q94H/R138H/R169H/T345S)
experiment_summary: MHC binding assay: UV-ligand exchange with β2m ELISA (peptide exchange yield)
cond: MHC class I binding score; binding to HLA-A*02:01 ranged by peptide exchange yield (UV-ligand exchange, β2m ELISA)

- substance: "288 (GLAESTGLLAV; listed as Homo sapiens) [compound 288]"
  Peptide Exchange: "″+++″ (≥50 = +++)"
- substance: "168 (YLLDQSFVM; listed as Homo sapiens) [compound 168]"
  Peptide Exchange: "″++++″ (≥75% = ++++)"
- substance: "381 (YLLEENKIKL; listed as Homo sapiens) [compound 381]"
  Peptide Exchange: "″+++″ (≥50 = +++)"
- substance: "112 (KTLDVDATYEI; listed as Homo sapiens) [compound 112]"
  Peptide Exchange: "″+++″ (≥50 = +++)"
- substance: "25 (ATYSGLESQSV; listed as Homo sapiens) [compound 25]"
  Peptide Exchange: "″++″ (≥20% = ++)"
- substance: "172 (TLYDMLASI; listed as Homo sapiens) [compound 172]"
  Peptide Exchange: "″+++″ (≥50 = +++)"
- substance: "324 (SLYSALQQA; listed as Homo sapiens) [compound 324]"
  Peptide Exchange: "″+++″ (≥50 = +++)"
- substance: "230 (FLQDSKVIFV; listed as Homo sapiens) [compound 230]"
  Peptide Exchange: "″+++″ (≥50 = +++)"
- substance: "267 (TLLDWQDSL; listed as Homo sapiens) [compound 267]"
  Peptide Exchange: "″+++″ (≥50 = +++)"
- substance: "46 (YIIDSAQAV; listed as Homo sapiens) [compound 46]"
  Peptide Exchange: "″+++″ (≥50 = +++)"
- substance: "325 (TLENGVPCV; listed as Homo sapiens) [compound 325]"
  Peptide Exchange: "″+++″ (≥50 = +++)"
- substance: "370 (SIFASPESV; listed as Homo sapiens) [compound 370]"
  Peptide Exchange: "″+++″ (≥50 = +++)"
- substance: "189 (VMLEMTPEL; listed as Homo sapiens) [compound 189]"
  Peptide Exchange: "″+++″ (≥50 = +++)"
- substance: "96 (ILIDKTSFV; listed as Homo sapiens) [compound 96]"
  Peptide Exchange: "″+++″ (≥50 = +++)"
- substance: "200 (YMFEEVPIVI; listed as Homo sapiens) [compound 200]"
  Peptide Exchange: "″++++″ (≥75% = ++++)"
- substance: "156 (SLNIGDVQL; listed as Homo sapiens) [compound 156]"
  Peptide Exchange: "″+++″ (≥50 = +++)"
- substance: "85 (HLMLHTAAL; listed as Homo sapiens) [compound 85]"
  Peptide Exchange: "″++++″ (≥75% = ++++)"
- substance: "268 (TLLQVFHLL; listed as Homo sapiens) [compound 268]"
  Peptide Exchange: "″+++″ (≥50 = +++)"
- substance: "356 (FLHDHQAEL; listed as Homo sapiens) [compound 356]"
  Peptide Exchange: "″++″ (≥20% = ++)"

====

target_system: HLA-A*02:01 (Homo sapiens, UniProt P04439, D140Y/D185E/D98H/E176V/E277Q/G131W/G231S/I119V/I121R/I166T/I218V/L300P/L318F/N151K/N90K/P208A/P217A/Q86G/Q94H/R138H/R169H/T345S)
experiment_summary: MHC binding assay: UV-ligand exchange with β2m ELISA (peptide exchange yield)
cond: MHC class I binding score; binding to HLA-A*02:01 ranged by peptide exchange yield (UV-ligand exchange, β2m ELISA)
test_readout: Peptide Exchange

- substance: "364 (KMDWIFHTI; listed as Homo sapiens) [compound 364]"
  test_readout: "Peptide Exchange"
  result: "″+++″ (≥50 = +++)"
- substance: "133 (YLLSGDISEA; listed as Homo sapiens) [compound 133]"
  test_readout: "Peptide Exchange"
  result: "″+++″ (≥50 = +++)"
- substance: "294 (ALLDQLHTLL; listed as Homo sapiens) [compound 294]"
  test_readout: "Peptide Exchange"
  result: "″++++″ (≥75% = ++++)"
- substance: "17 (ALTKTNLQL; listed as Homo sapiens) [compound 17]"
  test_readout: "Peptide Exchange"
  result: "″+++″ (≥50 = +++)"
- substance: "37 (FIMEGGAMVL; listed as Homo sapiens) [compound 37]"
  test_readout: "Peptide Exchange"
  result: "″++++″ (≥75% = ++++)"
- substance: "42 (FLEEGGVVTV; listed as Homo sapiens) [compound 42]"
  test_readout: "Peptide Exchange"
  result: "″+++″ (≥50 = +++)"
- substance: "337 (YMYEKESEL; listed as Homo sapiens) [compound 337]"
  test_readout: "Peptide Exchange"
  result: "″++″ (≥20% = ++)"
- substance: "193 (YLDLSNNRL; listed as Homo sapiens) [compound 193]"
  test_readout: "Peptide Exchange"
  result: "″+++″ (≥50 = +++)"
- substance: "275 (VLLFIEHSV; listed as Homo sapiens) [compound 275]"
  test_readout: "Peptide Exchange"
  result: "″+++″ (≥50 = +++)"
- substance: "3 (VIAELPPKV; listed as Homo sapiens) [compound 3]"
  test_readout: "Peptide Exchange"
  result: "″++″ (≥20% = ++)"
- substance: "184 (VLSHNLYTV; listed as Homo sapiens) [compound 184]"
  test_readout: "Peptide Exchange"
  result: "″+++″ (≥50 = +++)"
- substance: "136 (NLDKLWTLV; listed as Homo sapiens) [compound 136]"
  test_readout: "Peptide Exchange"
  result: "″++″ (≥20% = ++)"
- substance: "260 (SLDDVEGMSV; listed as Homo sapiens) [compound 260]"
  test_readout: "Peptide Exchange"
  result: "″+++″ (≥50 = +++)"
- substance: "307 (LLLTKPTEA; listed as Homo sapiens) [compound 307]"
  test_readout: "Peptide Exchange"
  result: "″+++″ (≥50 = +++)"
- substance: "9 (ALCDTLITV; listed as Homo sapiens) [compound 9]"
  test_readout: "Peptide Exchange"
  result: "″+++″ (≥50 = +++)"
- substance: "252 (NLLDPGSSYLL; listed as Homo sapiens) [compound 252]"
  test_readout: "Peptide Exchange"
  result: "″+++″ (≥50 = +++)"
- substance: "103 (KLGGTPAPA; listed as Homo sapiens) [compound 103]"
  test_readout: "Peptide Exchange"
  result: "″++″ (≥20% = ++)"
- substance: "223 (ALWVSQPPEI; listed as Homo sapiens) [compound 223]"
  test_readout: "Peptide Exchange"
  result: "″+++″ (≥50 = +++)"
- substance: "64 (KLLESVASA; listed as Homo sapiens) [compound 64]"
  test_readout: "Peptide Exchange"
  result: "″+++″ (≥50 = +++)"
- substance: "329 (VLMDGSVKL; listed as Homo sapiens) [compound 329]"
  test_readout: "Peptide Exchange"
  result: "″++++″ (≥75% = ++++)"
